The compounds listed here are annotated with their IC50.
target_desc: T-type calcium channel (Homo sapiens, UniProt O95180)
assay_protocol: T-type channel blocking, FLIPR data (Table 6)
Assay type: cell-based
condition_parameters: CAv3.2, closed state, read-out: CAv3.2 IC50 Closed
value_kind: IC50

structure_notation=CC(C)(C[C@H]1C[C@@H](NC(=O)[C@H]2CCCC[C@H]2N)C1)S(=O)(=O)c1cccc(C(F)(F)F)c1 endpoint_result="≥ 10 µM"
structure_notation=CNC1(CC(=O)N[C@H]2C[C@@H](C(C)(C)S(=O)(=O)c3cc(F)cc(C(F)(F)F)c3)C2)CCCCC1 endpoint_result="≥ 10 µM"
structure_notation=N[C@@H]1CCCC[C@H]1C(=O)NC[C@H]1C[C@H](S(=O)(=O)c2cccc(OC(F)(F)F)c2)C1 endpoint_result="≥ 10 µM"

====

target_desc: T-type calcium channel (Homo sapiens)
assay_protocol: T-type channel blocking, FLIPR data (Table 6)
Type: cell-based
condition_parameters: CAv3.2, inactivated state, read-out: CAv3.2 IC50 Inact.
The compounds listed here are annotated with their log10 of IC50.
value_kind: log10 of IC50 (log10 of the value in µM)

compound=CC(C)([C@H]1C[C@H](Nc2ccnc(C(F)(F)F)n2)C1)S(=O)(=O)c1cccc(OC(F)(F)F)c1 value_kind="log10 of IC50" endpoint_result=0.41
compound=CC(C)([C@H]1C[C@@H](NC(=O)c2ccc(C(F)(F)F)cc2S(C)(=O)=O)C1)S(=O)(=O)c1cc(F)cc(C(F)(F)F)c1 value_kind="log10 of IC50" endpoint_result=1.00
compound=Cc1nc(S(=O)(=O)N[C@H]2C[C@H](C(C)(C)S(=O)(=O)c3cc(F)cc(C(F)(F)F)c3)C2)cn1C value_kind="log10 of IC50" endpoint_result=1.00
compound=CC(C)([C@H]1C[C@@H](NC(=O)c2ccc(C(F)(F)F)cn2)C1)S(=O)(=O)c1cccc(C(F)(F)F)c1 value_kind="log10 of IC50" endpoint_result=0.65
compound="CC(C)(C1CC(CNC(=O)c2ccc(Cl)c(F)c2)C1)S(=O)(=O)c1cccc(C(F)(F)F)c1 (stereo not shown)" value_kind="log10 of IC50" endpoint_result=-0.09
compound=N[C@H]1CCCC[C@@H]1C(=O)NC[C@H]1C[C@H](S(=O)(=O)c2cc(F)cc(C(F)(F)F)c2)C1 value_kind="log10 of IC50" endpoint_result=1.00
compound=CC(C)([C@H]1C[C@H](NC(=O)c2ccc(C(F)(F)F)nc2)C1)S(=O)(=O)c1cccc(C(F)(F)F)c1 value_kind="log10 of IC50" endpoint_result=0.79

====

The molecules listed here are annotated with their IC50.
target_desc: human α1H T-type channels (Homo sapiens)
assay_protocol: T-type calcium channel block, whole cell patch clamp, α1H
Format: cell-based
condition_parameters: HEK cells stably expressing human α1H; mainly non-inactivated protocol; values above 10,000 nM represented as 10000
value_kind: IC50

molecule=O=C(CN[C@H]1CC[C@H](S(=O)(=O)c2cccc(C(F)(F)F)c2)CC1)NCC(F)(F)F endpoint_result="> 10 µM"
molecule="O=C(NC1CCC(F)(S(=O)(=O)c2cccc(C(F)(F)F)c2)CC1)c1nocc1C1CC1 (stereo not drawn)" endpoint_result="> 10 µM"
molecule=O=C(N[C@H]1CC[C@H](S(=O)(=O)c2cccc(C(F)(F)F)c2)CC1)C1(C(F)(F)F)CCC1 endpoint_result="> 10 µM"

====

target_desc: Human Cav 2.2 channels (Homo sapiens)
Sequence (Q00975 whole entry): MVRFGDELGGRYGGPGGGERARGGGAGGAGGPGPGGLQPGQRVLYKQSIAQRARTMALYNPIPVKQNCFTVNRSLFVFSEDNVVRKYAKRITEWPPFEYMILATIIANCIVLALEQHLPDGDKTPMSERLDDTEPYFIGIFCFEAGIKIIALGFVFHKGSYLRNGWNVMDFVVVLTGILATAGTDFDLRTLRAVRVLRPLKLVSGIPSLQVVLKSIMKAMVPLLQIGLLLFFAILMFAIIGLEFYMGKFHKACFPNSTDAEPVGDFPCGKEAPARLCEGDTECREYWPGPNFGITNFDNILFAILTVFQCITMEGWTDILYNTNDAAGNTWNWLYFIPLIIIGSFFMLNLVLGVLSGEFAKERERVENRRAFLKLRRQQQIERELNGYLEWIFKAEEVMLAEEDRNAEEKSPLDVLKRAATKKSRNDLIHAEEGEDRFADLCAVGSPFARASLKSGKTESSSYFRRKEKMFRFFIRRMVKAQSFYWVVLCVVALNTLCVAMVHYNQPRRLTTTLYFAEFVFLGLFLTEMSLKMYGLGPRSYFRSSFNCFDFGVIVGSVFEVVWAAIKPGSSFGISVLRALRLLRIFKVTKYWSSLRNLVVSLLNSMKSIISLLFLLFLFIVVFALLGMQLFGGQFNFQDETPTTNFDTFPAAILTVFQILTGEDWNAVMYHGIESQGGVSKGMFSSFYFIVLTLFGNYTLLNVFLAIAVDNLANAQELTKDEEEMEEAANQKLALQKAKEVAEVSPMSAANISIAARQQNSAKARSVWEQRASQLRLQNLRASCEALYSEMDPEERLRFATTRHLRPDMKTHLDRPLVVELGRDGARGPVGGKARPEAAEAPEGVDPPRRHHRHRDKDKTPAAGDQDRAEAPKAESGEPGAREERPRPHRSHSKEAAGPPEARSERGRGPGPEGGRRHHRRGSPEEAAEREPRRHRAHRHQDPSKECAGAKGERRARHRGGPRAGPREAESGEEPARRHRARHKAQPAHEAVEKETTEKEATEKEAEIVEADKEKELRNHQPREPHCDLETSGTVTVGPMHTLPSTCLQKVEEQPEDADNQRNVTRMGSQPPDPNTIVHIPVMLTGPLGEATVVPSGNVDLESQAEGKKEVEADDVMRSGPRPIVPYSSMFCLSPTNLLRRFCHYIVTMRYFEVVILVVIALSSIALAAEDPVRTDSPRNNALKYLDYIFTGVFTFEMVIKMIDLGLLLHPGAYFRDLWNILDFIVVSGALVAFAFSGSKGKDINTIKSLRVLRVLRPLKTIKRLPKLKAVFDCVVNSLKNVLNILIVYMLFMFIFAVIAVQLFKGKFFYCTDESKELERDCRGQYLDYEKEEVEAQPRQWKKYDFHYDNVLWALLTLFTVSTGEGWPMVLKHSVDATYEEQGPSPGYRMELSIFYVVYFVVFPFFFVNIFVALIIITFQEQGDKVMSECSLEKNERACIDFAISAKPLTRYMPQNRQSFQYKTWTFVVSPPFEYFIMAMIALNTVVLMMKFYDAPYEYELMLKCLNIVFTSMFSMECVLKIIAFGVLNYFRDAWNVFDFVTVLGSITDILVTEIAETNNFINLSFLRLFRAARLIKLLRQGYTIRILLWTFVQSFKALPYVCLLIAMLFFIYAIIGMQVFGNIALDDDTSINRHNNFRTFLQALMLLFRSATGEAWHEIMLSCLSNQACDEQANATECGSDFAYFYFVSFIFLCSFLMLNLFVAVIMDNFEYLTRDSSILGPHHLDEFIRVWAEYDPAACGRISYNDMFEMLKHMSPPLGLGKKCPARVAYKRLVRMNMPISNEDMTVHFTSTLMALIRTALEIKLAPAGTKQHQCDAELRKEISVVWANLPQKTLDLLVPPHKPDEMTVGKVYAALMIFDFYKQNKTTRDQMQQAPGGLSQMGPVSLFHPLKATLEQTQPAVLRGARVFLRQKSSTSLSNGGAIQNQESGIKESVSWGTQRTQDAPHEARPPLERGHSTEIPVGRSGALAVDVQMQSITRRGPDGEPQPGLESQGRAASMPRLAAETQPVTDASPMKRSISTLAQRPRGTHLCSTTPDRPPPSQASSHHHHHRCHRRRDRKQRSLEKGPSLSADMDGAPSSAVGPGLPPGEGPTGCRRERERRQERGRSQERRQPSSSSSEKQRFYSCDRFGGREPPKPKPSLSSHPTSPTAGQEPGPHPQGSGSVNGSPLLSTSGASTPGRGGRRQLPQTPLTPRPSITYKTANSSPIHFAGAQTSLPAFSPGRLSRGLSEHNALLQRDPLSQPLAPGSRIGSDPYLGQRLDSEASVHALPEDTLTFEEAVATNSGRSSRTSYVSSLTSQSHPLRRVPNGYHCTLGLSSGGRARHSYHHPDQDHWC
Sequence (P54289 25-1103 partner): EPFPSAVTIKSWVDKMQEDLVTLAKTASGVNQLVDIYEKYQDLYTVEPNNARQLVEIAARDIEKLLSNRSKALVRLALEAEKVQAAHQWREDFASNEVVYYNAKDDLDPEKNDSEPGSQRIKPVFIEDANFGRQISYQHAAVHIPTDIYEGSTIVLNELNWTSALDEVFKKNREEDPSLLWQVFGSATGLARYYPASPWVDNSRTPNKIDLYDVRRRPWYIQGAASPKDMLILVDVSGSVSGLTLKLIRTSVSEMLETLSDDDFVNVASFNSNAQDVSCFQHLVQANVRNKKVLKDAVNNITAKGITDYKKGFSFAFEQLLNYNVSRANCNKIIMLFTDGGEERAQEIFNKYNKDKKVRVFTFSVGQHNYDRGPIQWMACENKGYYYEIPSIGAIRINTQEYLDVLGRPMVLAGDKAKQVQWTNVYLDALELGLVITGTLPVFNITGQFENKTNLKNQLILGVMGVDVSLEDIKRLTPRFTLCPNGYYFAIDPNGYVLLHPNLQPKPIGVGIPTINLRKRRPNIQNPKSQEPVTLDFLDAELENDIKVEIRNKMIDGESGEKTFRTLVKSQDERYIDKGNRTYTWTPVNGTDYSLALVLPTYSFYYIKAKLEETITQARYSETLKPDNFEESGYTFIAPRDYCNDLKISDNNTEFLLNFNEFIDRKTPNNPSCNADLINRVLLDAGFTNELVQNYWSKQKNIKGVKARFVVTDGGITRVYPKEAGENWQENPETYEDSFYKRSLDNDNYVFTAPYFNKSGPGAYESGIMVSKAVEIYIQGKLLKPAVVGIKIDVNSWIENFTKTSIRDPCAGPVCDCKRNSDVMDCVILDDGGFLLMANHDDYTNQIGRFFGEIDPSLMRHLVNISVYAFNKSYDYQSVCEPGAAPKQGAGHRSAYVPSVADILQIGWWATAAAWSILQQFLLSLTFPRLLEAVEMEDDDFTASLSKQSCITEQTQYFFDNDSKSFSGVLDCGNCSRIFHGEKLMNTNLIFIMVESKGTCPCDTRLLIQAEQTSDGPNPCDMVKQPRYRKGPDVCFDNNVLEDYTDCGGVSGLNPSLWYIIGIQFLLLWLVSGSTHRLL
Sequence (P54284 whole entry partner): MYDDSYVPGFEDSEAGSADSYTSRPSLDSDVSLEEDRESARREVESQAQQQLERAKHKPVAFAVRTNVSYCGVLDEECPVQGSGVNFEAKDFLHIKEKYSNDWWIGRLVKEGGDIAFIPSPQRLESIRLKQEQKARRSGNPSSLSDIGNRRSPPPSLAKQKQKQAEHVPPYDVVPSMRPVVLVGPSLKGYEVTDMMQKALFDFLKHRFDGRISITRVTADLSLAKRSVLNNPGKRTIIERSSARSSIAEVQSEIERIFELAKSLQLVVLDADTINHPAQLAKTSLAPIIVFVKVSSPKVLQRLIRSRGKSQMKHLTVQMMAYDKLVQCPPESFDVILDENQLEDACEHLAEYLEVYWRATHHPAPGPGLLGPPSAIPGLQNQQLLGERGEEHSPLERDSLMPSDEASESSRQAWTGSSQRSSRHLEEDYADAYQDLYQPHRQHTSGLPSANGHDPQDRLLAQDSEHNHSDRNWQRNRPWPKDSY
assay_protocol: Fluorescent assay for CaV2.2 channels using potassium depolarization (VIPR/FLIPR)
Format: cell-based
condition_parameters: FLIPR data; closed state; read-out: CAv2.2 IC50 Closed
The molecules listed here are annotated with their IC50.
value_kind: IC50 (µM)

molecule="CC(C)([C@H]1C[C@H](C(=O)Nc2ccc(C(F)(F)F)cc2Cl)C1)S(=O)(=O)c1cccc(C(F)(F)F)c1 [Compound 763]" endpoint_result=2.04
molecule="CC(C)(C[C@H]1C[C@H](NC(=O)c2ccc(OCC(F)(F)F)nc2)C1)S(=O)(=O)c1cccc(C(F)(F)F)c1 [Compound 724]" endpoint_result=0.98
molecule="CC(C)([C@H]1C[C@@H](C(=O)Nc2cc(C(F)(F)F)n[nH]2)C1)S(=O)(=O)c1cccc(C(F)(F)F)c1 [Compound 757]" endpoint_result=5.79
molecule="N[C@@H]1CCCC[C@H]1C(=O)NC[C@H]1C[C@H](S(=O)(=O)c2cccc(Cl)c2)C1 [Compound 777]" endpoint_result=10
molecule="CC(C)(C[C@H]1C[C@H](NC(=O)c2cnc(C(F)(F)F)nc2)C1)S(=O)(=O)c1cccc(C(F)(F)F)c1 [Compound 721]" endpoint_result=4.86
molecule="CC(C)([C@H]1C[C@@H](NS(=O)(=O)c2ccc(Cl)c(F)c2)C1)S(=O)(=O)c1cccc(C(F)(F)F)c1 [Compound 626]" endpoint_result=8.45
molecule="CC(C)([C@H]1C[C@H](NC(=O)c2ccc(Cl)cc2S(C)(=O)=O)C1)S(=O)(=O)c1cccc(C(F)(F)F)c1 [Compound 679]" endpoint_result=10
molecule="CC(C)([C@H]1C[C@H](NC(=O)c2ccc(F)c(Cl)c2)C1)S(=O)(=O)c1cccc(OC(F)(F)F)c1 [Compound 634]" endpoint_result=2.21
molecule="Cc1nc(S(=O)(=O)N[C@H]2C[C@@H](C(C)(C)S(=O)(=O)c3cc(F)cc(C(F)(F)F)c3)C2)cn1C [Compound 604]" endpoint_result=10
molecule="CC(C)([C@H]1C[C@H](NC(=O)c2ncc(C(F)(F)F)cn2)C1)S(=O)(=O)c1cccc(C(F)(F)F)c1 [Compound 678]" endpoint_result=8.95
molecule="CC(C)(C[C@H]1C[C@@H](NC(=O)c2ncc(C(F)(F)F)cc2S(C)(=O)=O)C1)S(=O)(=O)c1cccc(C(F)(F)F)c1 [Compound 730]" endpoint_result=9.1
molecule="CC(C)(C1CC(CNC(=O)c2ccnc(C(F)(F)F)c2)C1)S(=O)(=O)c1cccc(C(F)(F)F)c1 (centres unmarked) [Compound 620]" endpoint_result=2.87
molecule="Cc1nc(S(=O)(=O)N[C@H]2C[C@H](C(C)(C)S(=O)(=O)c3cc(F)cc(C(F)(F)F)c3)C2)cn1C [Compound 611]" endpoint_result=10
molecule="N[C@@H]1CCCC[C@@H]1C(=O)NC[C@H]1C[C@H](S(=O)(=O)c2cccc(OC(F)(F)F)c2)C1 (single isomer, unassigned) [Compound 700]" endpoint_result=3.55
molecule="O=C(NC[C@H]1C[C@H](S(=O)(=O)c2cc(F)cc(C(F)(F)F)c2)C1)c1cnc(C(F)(F)F)nc1 [Compound 705]" endpoint_result=10
molecule="CC(C)([C@H]1C[C@H](NC(=O)c2ccc(C(F)(F)F)cc2S(C)(=O)=O)C1)S(=O)(=O)c1cc(F)cc(C(F)(F)F)c1 [Compound 592]" endpoint_result=10
molecule="N[C@H]1CCCC[C@@H]1C(=O)NC[C@H]1C[C@H](S(=O)(=O)c2cc(F)cc(C(F)(F)F)c2)C1 [Compound 712]" endpoint_result=10

====

target_desc: UniProt:Q00975
assay_protocol: Fluorescent assay for CaV2.2 channels using potassium depolarization (VIPR/FLIPR)
Assay type: cell-based
condition_parameters: FLIPR data; ratio closed/inactivated IC50
The molecules listed here are annotated with their CAv2.2 IC50 Ratio closed/inact..
value_kind: CAv2.2 IC50 Ratio closed/inact.

molecule="CC(C)(C1CC(CNC(=O)c2cc(C(F)(F)F)n[nH]2)C1)S(=O)(=O)c1cccc(C(F)(F)F)c1 (stereo not shown) [Compound 614]" endpoint_result=5.9
molecule=O=C(NC[C@H]1C[C@H](S(=O)(=O)c2cc(F)cc(C(F)(F)F)c2)C1)c1ccc(C(F)(F)F)cc1 endpoint_result=7.8
molecule=CC(C)([C@H]1C[C@@H](NS(=O)(=O)c2ccc(Cl)c(F)c2)C1)S(=O)(=O)c1cccc(C(F)(F)F)c1 endpoint_result=7.7
molecule=CNC1(CC(=O)NCc2ccc(S(=O)(=O)c3cccc(C(F)(F)F)c3)cc2)CCCCC1 endpoint_result=5.8

====

The compounds listed here are annotated with their IC50.
target_desc: human α1G T-type channels (Homo sapiens, UniProt O43497)
assay_protocol: T-type calcium channel block, whole cell patch clamp, α1G
condition_parameters: HEK cells stably expressing human α1G; mainly non-inactivated protocol; values above 10,000 nM represented as 10000
value_kind: IC50 (nM)

structure_notation=O=C(N[C@H]1CC[C@@](F)(S(=O)(=O)c2cccc(C(F)(F)F)c2)CC1)[C@@H]1CC[C@H](c2ccccc2)N1 value_kind=IC50 endpoint_unit=nM endpoint_result=1400
structure_notation=CN(CCC(C)(C)S(=O)(=O)c1cccc(C(F)(F)F)c1)C(=O)c1ccc(C(F)(F)F)cc1S(C)(=O)=O value_kind=IC50 endpoint_unit=nM endpoint_result=850
structure_notation=O=S(=O)(N[C@H]1CC[C@@](F)(S(=O)(=O)c2cccc(C(F)(F)F)c2)CC1)c1ccc(OC(F)(F)F)cc1 value_kind=IC50 endpoint_unit=nM endpoint_result=970
